# MEASURED_TARGET: human IL-17RA (form used in the low resolution BIAcore not stated) (human, UniProt Q96F46 33-320, limits assumed)
# PROCEDURE_DETAILS: low resolution BIAcore, subcloned hybridoma
Can you tell me Kd for the items I'm about to list?
Just the number please, in nM, no unit attached.

Value of measured Kd for the entry AMH12/AML12 (antibody, IgG2, V domains shown, human mAb from IgG2 XenoMouse mice; also called AM-12; antibody M) VH: QVQLVQSGAEVKKPGASVKVSCKASGYTLTSYGISWVRQAPGQGLEWMGWISTYKGNTNYAQKLQGRVTMTTDTSTSTAYMELRSLRSDDTAVYYCARKQLVFDYWGQGTLVTVSS VL: EIVMTQSPATLSVSPGERATLSCRASQSISSSLAWYQQKPGQAPRLLIYGASTRATGIPARFSGSGSGTEFTLTISSLQSENFAVYYCQQYDNWPLTFGGGTKVEIK : 8.2

Value of measured Kd for the entry AMH16/AML16 (antibody, IgG2, V domains shown, human mAb from IgG2 XenoMouse mice; also called AM-16; antibody O) VH: QVQLVQSGAEVKKPGASVKVSCKASGYTFTSYGISWVRQAPGQGLEWMGWISAYNGNTKYAQKLQGRVTMTTDTSTSTVYMELRSLRSDDTAVYYCARKQLVFDYWGQGTLVTVSS VL: EIVMTQSPATLSVSPGERATLSCRASQSISTSLAWYQQKPGQAPRLLIYGTSTRATGIPARFSGSGSGTEFTLTISSLQSEDFAVYFCQQYDIWPLTFGGGTKVEIK : 6.2

Value of measured Kd for the entry AMH21/AML21 (antibody, IgG2, V domains shown, human mAb from IgG2 XenoMouse mice; also called AM-21; antibody Q) VH: EVQLVESGGGSVQPGGSLRLSCAASGFTFSSYSMNWVRQAPGKGLEWVSIISSRSSIIHYADSVKGRFTISRDNAKNSLYLQMNSLRDEDTAVYYCARPKVGGGMDVWGQGTTVTVSS VL: DIQMTQSPSSLSASVGDRVTITCRASQGISNYLAWYQQKPGKFPELLIYAASTLQSGVPSRFSGSGSGTDFTLTISSLQPEDVATYYCQKYNRAPFTFGPGTKVDIK : 16.7

Value of measured Kd for the entry AMH13/AML13 (antibody, IgG2, V domains shown, human mAb from IgG2 XenoMouse mice; also called AM-13) VH: QVQLVESGGGVVQPGRSLRLSCAASGFTFSSYGMQWVRQAPGKGLEWVAVIWYDGNKKYYADSVKGRFTISRDNSKNTLYLQMNSLRAEDTAVYYCARGRVRDYYYGMDVWGQGTTVTVSS VL: DIVMTQTPLSLSVTPGQPASIACKSSQSLLHSDGKTYLYWYLQKPGQPPQLLIYEVSTRFSGVPDRFSGSGSGTDFTLKISRVEAEDVGVFYCMQSIQLPLTFGGGTKVEIK : 7.6
